# Experimental target: recombinant human HDAC1 (Homo sapiens)
# Sequence (Q13547 whole entry): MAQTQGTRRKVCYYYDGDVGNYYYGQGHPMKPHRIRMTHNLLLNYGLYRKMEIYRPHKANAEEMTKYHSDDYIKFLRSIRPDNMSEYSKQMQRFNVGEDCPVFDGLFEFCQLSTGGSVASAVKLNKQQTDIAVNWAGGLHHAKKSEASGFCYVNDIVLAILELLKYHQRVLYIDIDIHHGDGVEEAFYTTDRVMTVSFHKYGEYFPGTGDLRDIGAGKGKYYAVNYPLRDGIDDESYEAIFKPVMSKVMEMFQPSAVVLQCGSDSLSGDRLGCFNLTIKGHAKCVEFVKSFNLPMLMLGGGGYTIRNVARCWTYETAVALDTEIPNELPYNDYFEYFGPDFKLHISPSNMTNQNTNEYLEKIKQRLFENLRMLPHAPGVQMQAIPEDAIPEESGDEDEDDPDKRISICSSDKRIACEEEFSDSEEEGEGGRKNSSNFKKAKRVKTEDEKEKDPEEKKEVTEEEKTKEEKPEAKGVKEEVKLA
# Protocol text: biochemical
Measure: pIC50
In simple prose, pIC50 is minus the logarithm base ten of a concentration in moles per litre.

// O=C(C=Cc1ccc2c(c1)CCN2S(=O)(=O)c1ccccc1)NO [MPT0E028] : pIC50 value = 7.28

====

# Experimental target: recombinant human HDAC2 (Homo sapiens)
# Sequence (Q92769 whole entry): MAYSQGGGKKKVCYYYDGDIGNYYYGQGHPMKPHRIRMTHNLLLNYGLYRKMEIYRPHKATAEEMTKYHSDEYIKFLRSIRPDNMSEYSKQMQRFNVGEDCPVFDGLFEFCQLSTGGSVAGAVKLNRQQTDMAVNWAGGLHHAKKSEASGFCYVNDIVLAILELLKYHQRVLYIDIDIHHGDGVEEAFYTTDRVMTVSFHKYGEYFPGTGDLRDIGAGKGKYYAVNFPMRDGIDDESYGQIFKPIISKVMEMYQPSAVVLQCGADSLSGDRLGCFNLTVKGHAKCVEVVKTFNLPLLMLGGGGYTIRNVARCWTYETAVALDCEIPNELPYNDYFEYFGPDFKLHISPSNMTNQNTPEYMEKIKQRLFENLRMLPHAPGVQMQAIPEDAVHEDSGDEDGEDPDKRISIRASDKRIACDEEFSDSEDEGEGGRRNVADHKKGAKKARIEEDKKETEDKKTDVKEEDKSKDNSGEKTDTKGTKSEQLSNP
# Protocol text: HDAC biochemical assay (fluorogenic)
# Experimental setup: Class I, mean±SE
Measure: IC50 (nM)
Answer format: numeric, nM implied, no suffix.

// O=C(C=Cc1ccc2c(c1)CCN2S(=O)(=O)c1ccccc1)NO [MPT0E028] : IC50 value = 106
